This collection of values is drawn from ChEMBL document CHEMBL4507263.

Biological target: L-type calcium channel, benzothiazepine site (Cav1.2 alpha-1C) (Homo sapiens)
Sequence (Q13936 whole entry): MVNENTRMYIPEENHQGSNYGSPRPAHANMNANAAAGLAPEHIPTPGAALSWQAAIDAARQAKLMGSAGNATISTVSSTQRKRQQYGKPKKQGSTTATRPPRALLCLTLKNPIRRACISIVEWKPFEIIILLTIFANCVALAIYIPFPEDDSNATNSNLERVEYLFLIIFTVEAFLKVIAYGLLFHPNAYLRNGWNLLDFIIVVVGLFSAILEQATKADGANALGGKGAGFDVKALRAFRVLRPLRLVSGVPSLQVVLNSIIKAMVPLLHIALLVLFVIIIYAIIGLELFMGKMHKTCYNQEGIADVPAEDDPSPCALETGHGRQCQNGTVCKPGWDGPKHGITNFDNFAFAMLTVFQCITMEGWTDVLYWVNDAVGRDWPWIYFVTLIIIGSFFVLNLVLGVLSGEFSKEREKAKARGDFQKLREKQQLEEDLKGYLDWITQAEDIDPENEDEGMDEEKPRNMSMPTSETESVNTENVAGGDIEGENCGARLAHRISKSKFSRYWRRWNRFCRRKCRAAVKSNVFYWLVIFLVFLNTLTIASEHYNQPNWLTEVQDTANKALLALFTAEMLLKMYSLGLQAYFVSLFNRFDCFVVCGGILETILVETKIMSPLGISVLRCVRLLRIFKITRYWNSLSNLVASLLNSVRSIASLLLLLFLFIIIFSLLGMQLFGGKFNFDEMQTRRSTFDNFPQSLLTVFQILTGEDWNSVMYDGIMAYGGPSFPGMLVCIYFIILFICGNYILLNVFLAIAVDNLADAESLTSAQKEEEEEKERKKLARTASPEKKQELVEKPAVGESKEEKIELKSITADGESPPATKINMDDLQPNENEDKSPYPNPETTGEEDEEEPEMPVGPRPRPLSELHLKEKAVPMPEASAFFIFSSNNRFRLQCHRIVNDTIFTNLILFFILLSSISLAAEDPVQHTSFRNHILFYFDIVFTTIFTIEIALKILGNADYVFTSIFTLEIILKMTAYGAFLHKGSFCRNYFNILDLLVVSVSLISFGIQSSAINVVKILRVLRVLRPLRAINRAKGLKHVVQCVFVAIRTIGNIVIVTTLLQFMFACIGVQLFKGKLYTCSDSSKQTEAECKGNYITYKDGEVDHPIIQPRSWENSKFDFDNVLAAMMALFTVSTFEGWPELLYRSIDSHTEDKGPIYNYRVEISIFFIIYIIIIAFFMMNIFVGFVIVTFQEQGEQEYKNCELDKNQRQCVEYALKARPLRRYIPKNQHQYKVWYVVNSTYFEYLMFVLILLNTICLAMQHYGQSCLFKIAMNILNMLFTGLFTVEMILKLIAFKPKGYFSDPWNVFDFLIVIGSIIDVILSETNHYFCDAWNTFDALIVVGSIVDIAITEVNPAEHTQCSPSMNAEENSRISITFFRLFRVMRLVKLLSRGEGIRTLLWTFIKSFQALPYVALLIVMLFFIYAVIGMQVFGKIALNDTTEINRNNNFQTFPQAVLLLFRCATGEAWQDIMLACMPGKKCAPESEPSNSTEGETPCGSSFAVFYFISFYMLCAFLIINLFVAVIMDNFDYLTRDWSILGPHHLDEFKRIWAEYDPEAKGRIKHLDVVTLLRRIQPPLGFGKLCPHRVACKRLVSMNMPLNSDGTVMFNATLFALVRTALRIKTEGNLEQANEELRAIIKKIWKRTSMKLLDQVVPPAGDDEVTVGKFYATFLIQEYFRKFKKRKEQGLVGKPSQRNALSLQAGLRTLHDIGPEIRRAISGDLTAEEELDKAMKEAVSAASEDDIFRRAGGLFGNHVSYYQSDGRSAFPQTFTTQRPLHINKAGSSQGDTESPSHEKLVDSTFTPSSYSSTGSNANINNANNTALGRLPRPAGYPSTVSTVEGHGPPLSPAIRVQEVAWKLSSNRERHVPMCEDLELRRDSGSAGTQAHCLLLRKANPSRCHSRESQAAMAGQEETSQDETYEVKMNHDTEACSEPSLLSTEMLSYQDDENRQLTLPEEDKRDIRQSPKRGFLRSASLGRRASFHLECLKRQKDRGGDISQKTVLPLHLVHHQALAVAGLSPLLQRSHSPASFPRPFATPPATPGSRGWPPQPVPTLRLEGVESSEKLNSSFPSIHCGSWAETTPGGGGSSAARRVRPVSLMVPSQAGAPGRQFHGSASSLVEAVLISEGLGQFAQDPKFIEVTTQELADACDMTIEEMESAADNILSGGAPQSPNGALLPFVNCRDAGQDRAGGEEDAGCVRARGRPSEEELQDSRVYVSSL
Test: Inhibition of Calcium Channel L-Type, Benzothiazepine at 10 µM in the Eurofins-Panlabs radioligand binding assay (Eurofins_assay_214510)
Parameters: ligand concentration 2 nM, non-specific ligand with concentration 10 µM Diltiazem, incubation time 3h, incubation temperature 4 °C
Conditions: male, Wistar, rat, rat whole brain preparation, probe [3H] Diltiazem; compound concentration 10 uM; target entry is the homologue from another species
observation_type: inhibition at 3 h, 10 µM

[[record]]
structure = "CC1=C(C#N)C(c2ccc3[nH]nc(C)c3c2)C(C#N)=C(C)N1"
recorded_result = "-9% (not active)"


* * *

Target: D(1B) dopamine receptor (Homo sapiens, UniProt P21918)
Sequence (P21918 whole entry): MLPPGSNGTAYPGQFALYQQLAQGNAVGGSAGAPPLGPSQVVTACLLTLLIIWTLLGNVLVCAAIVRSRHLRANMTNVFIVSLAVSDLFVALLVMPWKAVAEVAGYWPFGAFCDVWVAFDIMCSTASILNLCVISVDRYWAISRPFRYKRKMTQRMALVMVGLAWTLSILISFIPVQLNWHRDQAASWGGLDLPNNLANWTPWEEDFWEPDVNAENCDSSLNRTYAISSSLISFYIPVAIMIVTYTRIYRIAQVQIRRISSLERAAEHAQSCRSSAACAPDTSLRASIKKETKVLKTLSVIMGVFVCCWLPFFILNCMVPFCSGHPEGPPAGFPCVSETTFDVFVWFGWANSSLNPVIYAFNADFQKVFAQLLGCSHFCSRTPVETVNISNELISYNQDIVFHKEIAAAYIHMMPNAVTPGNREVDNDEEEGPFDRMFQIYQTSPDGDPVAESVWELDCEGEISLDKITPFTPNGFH
observation_type: Ki

[[record]]
compound = "CC1=C(C#N)[C@@H](c2ccc3[nH]nc(C)c3c2)C(C#N)=C(c2ccc(Cl)cc2)N1 [BAY-827]"
recorded_result = "10 µM"

